experimental target: T1, human CD3e/g antigen (ACRO, catalog number CDG-H52W5) (human, UniProt P07766 23-126; P09693 23-116)
T1 construct: Bought reagent used as the Biacore analyte; also called hCD3e/g
assay: SPR (Biacore 8K), antibody captured via anti-human Fc
The entries below come with measured koff values attached.
Expressed in s⁻¹, but write only the number.

hAb007-21 (antibody, V domains shown, Humanized; constant regions not specified) VH: QVQLVQSGAEVKKPGASVKVSCKASGSTFTDNYIHWVRQAPGQRLEWIGWIYPGSVNIKYNEKFKDRVTITADTSASTAYMELSSLRSEDTAVYYCARDISRYYFDYWGQGTTVTVSS VL: DIVMTQSPDSLAVSLGERATINCKSSQSLLNSRTRKNYLAWYQQKPGQPPKLLIYWASTRESGVPDRFSGSGSGTDFTLTISSLQAEDVAVYYCKQSFILRTFGGGTKLEIK    0.00377

Could you now look at the following binder, please?
Reported koff for hAb007-20 (antibody, V domains shown, Humanized; constant regions not specified) VH: QVQLVQSGAEVKKPGASVKVSCKASGSTFTDNYIHWVRQAPGQRLEWMGWIYPGSVNIKYNEKFKDRVTITRDTSASTAYMELSSLRSEDTAVYYCARDISRYYFDYWGQGTTVTVSS VL: DIVMTQSPDSLAVSLGERATMNCKSSQSLLNSRTRKNYLAWYQQKPGQPPKLLIYWASTRESGVPDRFTGSGSGTDFTLTISSLQAEDVAVYYCKQSFILRTFGGGTKLEIK was 0.00375
